- TARGET UNDER TEST: AaegOR8 (Aedes aegypti, UniProt Q16MN0)
- Sequence (Q16MN0 32-422): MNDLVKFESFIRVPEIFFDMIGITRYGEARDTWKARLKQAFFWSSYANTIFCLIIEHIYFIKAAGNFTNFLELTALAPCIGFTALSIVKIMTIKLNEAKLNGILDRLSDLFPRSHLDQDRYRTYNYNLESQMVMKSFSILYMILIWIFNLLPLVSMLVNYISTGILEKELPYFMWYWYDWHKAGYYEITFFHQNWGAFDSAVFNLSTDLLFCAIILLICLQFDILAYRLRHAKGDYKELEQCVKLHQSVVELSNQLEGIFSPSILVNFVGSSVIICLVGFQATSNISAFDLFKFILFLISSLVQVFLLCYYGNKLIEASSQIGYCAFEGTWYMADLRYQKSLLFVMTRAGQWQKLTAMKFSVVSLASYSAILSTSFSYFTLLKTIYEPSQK
- Sequence (Q178U6 whole entry partner): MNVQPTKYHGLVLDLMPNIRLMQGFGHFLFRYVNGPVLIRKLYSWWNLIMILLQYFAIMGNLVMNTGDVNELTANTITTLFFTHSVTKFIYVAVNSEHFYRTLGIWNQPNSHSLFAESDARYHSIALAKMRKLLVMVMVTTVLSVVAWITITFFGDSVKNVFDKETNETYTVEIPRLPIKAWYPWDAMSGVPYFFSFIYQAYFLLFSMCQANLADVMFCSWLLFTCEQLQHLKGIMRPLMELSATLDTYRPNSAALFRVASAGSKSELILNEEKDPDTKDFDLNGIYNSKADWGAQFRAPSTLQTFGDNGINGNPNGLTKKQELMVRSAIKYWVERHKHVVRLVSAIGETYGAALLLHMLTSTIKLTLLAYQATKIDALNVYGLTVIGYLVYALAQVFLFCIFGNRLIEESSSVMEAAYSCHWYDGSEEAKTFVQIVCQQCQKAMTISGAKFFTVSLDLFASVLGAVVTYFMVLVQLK
- ASSAY SUMMARY: Two-electrode voltage clamp of Xenopus laevis oocytes expressing AaegOR8/Orco (blends, unitary compounds, concentration-response)
- PROTOCOL CONDITIONS: AaegOR8/Orco expressing oocytes, TEVC, concentration-response of normalized current
MEASURED ENDPOINT: EC50 (nM)

> print(dat)
                                   compound                        target.under.test  measured.endpoint  reported.measurement
1  C=CC(O)CCCCC (stereo not shown) [1-octen-3-ol]  AaegOR8 (Aedes aegypti, UniProt Q16MN0)               EC50                  2140
